The origin of these recorded values is paper PMC3330151.

- ASSAYED_SYSTEM: RecQ helicase (Escherichia coli, UniProt P15043 1-609)
- Sequence (P15043 whole entry): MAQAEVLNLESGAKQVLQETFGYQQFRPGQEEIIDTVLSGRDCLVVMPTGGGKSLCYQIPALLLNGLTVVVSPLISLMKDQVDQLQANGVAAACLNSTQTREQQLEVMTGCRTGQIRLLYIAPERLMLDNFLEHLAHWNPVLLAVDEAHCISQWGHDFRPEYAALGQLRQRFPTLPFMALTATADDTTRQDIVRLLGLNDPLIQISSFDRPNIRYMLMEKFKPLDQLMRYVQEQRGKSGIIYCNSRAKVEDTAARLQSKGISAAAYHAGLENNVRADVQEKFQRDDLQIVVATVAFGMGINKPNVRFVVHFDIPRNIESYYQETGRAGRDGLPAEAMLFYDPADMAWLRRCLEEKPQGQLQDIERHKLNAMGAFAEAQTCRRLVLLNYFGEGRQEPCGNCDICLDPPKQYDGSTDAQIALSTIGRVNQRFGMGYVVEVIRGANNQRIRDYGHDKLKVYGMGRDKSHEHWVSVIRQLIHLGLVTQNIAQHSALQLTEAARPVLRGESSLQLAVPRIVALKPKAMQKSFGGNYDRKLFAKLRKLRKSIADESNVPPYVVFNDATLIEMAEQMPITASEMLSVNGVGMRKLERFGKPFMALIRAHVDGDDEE
- EXPERIMENT_DESCRIPTION: EMSA
Recorded Kd by entry
TEST_READOUT: Kd

- BINDER: "TTTTTTTTTTTTTTTTTTTTTTTTT (ssDNA) [dT25]"
  REPORTED_VALUE: "400 nM"
- BINDER: "dT52 (ssDNA) DNA: TTTTTTTTTTTTTTTTTTTTTTTTTTTTTTTTTTTTTTTTTTTTTTTTTTTT"
  REPORTED_VALUE: "150 nM"
